Values were extracted from paper PMC8934651.

Molecular target: T1, Ssd1 ΔN338 (Saccharomyces cerevisiae (S288C/BY4741 …, UniProt P24276 339-1250))
T1 sequence: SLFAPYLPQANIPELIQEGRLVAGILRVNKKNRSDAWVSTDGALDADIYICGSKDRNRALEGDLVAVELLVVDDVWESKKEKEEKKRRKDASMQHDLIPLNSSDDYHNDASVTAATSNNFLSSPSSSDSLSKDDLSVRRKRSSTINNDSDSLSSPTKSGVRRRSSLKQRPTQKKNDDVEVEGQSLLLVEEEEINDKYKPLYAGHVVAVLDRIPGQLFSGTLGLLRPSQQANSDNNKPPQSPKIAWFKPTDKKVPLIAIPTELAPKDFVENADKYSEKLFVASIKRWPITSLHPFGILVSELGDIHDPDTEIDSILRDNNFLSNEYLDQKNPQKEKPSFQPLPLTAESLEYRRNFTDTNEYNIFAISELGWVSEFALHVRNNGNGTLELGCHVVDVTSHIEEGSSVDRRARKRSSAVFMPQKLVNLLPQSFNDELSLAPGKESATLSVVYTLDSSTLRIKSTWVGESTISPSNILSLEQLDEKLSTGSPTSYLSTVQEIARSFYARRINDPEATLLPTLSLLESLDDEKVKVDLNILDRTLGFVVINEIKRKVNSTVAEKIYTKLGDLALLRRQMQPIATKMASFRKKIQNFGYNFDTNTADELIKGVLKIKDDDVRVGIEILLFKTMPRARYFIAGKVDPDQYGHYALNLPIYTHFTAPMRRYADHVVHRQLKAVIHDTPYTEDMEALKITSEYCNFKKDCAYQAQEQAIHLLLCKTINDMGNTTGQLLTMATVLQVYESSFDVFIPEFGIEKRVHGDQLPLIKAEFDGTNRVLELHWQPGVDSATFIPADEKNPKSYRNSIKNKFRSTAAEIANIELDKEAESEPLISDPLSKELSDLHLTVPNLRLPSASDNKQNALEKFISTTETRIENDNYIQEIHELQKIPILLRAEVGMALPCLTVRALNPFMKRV
Test: fluorescence anisotropy; Anisotropy: 20 nM RNA, 20 mM HEPES pH 7.5, 150 mM NaCl, 1 mM DTT, 0.01% Tween 20, 15 and 30 min on ice; EMSA: 0.5 uM RNA, 20 mM HEPES pH 7.5, 150 mM K acetate
Details: protein: recombinant; tags: His tag cleaved with 3C protease; label: 5'-DY681 (EMSA); 5'-Cy3 (anisotropy)
measured_metric: Kd (nM)
Numbers only, in nM.

## Task So what does the record say about Kd for AUUUUCACUCCUUUAA (ssRNA) [SEE-15mer] ?
## Result 166
